Biological target: Human CB1R (Cannabinoid receptor 1) (Homo sapiens (Human), UniProt P21554)
Sequence (P21554 whole entry): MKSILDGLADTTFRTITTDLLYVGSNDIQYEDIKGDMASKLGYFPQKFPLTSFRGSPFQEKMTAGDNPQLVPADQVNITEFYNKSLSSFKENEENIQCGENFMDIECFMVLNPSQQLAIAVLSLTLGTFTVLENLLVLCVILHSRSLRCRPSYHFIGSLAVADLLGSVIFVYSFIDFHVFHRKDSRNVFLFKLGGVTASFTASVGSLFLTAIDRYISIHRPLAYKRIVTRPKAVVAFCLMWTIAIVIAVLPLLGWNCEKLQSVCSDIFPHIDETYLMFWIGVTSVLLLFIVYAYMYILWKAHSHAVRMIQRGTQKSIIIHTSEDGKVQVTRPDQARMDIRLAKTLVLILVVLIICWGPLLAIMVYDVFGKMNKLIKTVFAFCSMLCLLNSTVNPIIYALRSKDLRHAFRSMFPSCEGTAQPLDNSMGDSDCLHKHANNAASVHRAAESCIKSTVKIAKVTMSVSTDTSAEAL
Experiment: CB-1 in vitro cAMP assay (HTRF), inverse agonism
Conditions: mean where tested more than once
Source text: CB1 and CB2 receptors are Gi-coupled GPCR. Activation of CB1 and CB2 receptors results in a decrease in cAMP production. An inverse agonist of the CB1 or CB2 receptor results in the opposite effect, an increase of cAMP production. The principle of this assay is based on HTRF® technology (Homogeneous Time-Resolved Fluorescence). […] The tracer binding is quantified by a Mab anti-cAMP labeled with Eu3+TBP-NHS Cryptate (supplied as part of the assay kit). […]
pEC50: −log10 of the molar value.
// pEC50 lookup, one value per entry
reported.property: pEC50

# compound, reading.qualifier, measurement
measured = [
    ("CC(C)(C)OC(=O)NCCCCOc1cc(C(c2ccc(Cl)cc2)c2ccc(Cl)cc2)cc2c(NC3CCN(S(=O)(=O)C(F)(F)F)CC3)ccnc12", "=", 7.02),
    ("Cn1c(=O)cc(NC2CCN(S(=O)(=O)C(F)(F)F)CC2)c2cc(C(c3ccc(Cl)cc3)c3ccc(Cl)cc3)ccc21", "=", 7.62),
    ("CC(C)(C)Oc1cc(/C=C/c2cccc(F)c2)c2cc(C(O)(c3ccc(Cl)cc3)c3ccsc3)ccc2n1 (stereo not drawn)", "<", 5.00),
    ("COc1ccc(C(O)(c2ccc(Cl)cc2)c2ccc3[nH]c(=O)cc(NC4CCN(S(=O)(=O)C(F)(F)F)CC4)c3c2)cc1 (stereo not drawn)", "=", 7.54),
    ("NC(=O)Cn1c(=O)cc(NC2CCN(S(=O)(=O)C(F)(F)F)CC2)c2cc(C(c3ccc(Cl)cc3)c3ccc(Cl)cc3)ccc21", "=", 6.01),
    ("COC(=O)CCCCCOc1cc(NC2CCN(S(=O)(=O)C(F)(F)F)CC2)c2cc(C(c3ccc(Cl)cc3)c3ccc(Cl)cc3)ccc2n1", "=", 5.66),
    ("O=S(=O)(Oc1cc(C2=CCN(S(=O)(=O)C(F)(F)F)CC2)c2cc(C(c3ccc(Cl)cc3)c3ccc(Cl)cc3)ccc2n1)C(F)(F)F", "<", 5.00),
    ("O=C(O)c1ccc(CN2CCC(Nc3cc(=O)[nH]c4ccc(C(c5ccc(Cl)cc5)c5ccc(Cl)cc5)cc34)CC2)s1", "=", 6.53),
    ("COc1ccc(C(O)(c2ccc(Cl)cc2)c2ccc3nc(OC(C)(C)C)cc(/C=C/c4ccccc4)c3c2)cc1 (stereo not drawn)", "<", 5.00),
    ("O=c1cc(/C=C/c2cccc(F)c2)c2cc(C(c3ccc(Cl)cc3)c3ccc(Cl)s3)ccc2[nH]1 (stereo not drawn)", "=", 5.86),
    ("O=c1cc(N2CCN(S(=O)(=O)C(F)(F)F)CC2)c2cc(C(c3ccc(Cl)cc3)c3nccs3)ccc2[nH]1 (stereo not drawn)", "=", 6.49),
    ("O=c1cc(/C=C/c2ccccc2)c2cc(C(c3ccc(Cl)cc3)c3nccs3)ccc2[nH]1 (stereo not drawn)", "=", 6.09),
]
